This collection of values is drawn from ChEMBL document CHEMBL5252532.

# TESTED_TARGET: Cyclin-dependent kinase 2 (Homo sapiens, UniProt P24941)
PROPERTY_MEASURED: IC50 (nM)
Entry rule: numbers only, all in nM.

Find IC50 for `O=C1Nc2ccc3ncsc3c2/C1=C/Nc1ccc(S(=O)(=O)NCCOCCO)cc1` on Cyclin-dependent kinase 2 (Homo sapiens, UniProt P24941) and write it down.
12

----------
# Test system: A549
# ASSAY_NOTES: Anticancer activity against human A549 cells assessed as cell growth inhibition
# Format: functional, cell-based
PROPERTY_MEASURED: pIC50
Keep it numeric: pIC50 is minus log10 of the concentration in mol/L.

Specify measured pIC50 for `O=C1Nc2ncccc2C12CCN(Cc1ccccc1OC(F)(F)F)CC2` .
7.30

----------
# Test system: RKO
# ASSAY_NOTES: Anticancer activity against human RKO cells assessed as cell growth inhibition by MTT assay
# Assay type: functional, cell-based
pIC50: −log10 of the molar value.
PROPERTY_MEASURED: pIC50

Specify measured pIC50 for `COc1cc[nH]c1/C=C1\C(=O)Nc2ccc([N+](=O)[O-])c(N3CC[C@@H](N)C3)c21` .
> 5.00

----------
# TESTED_TARGET: Aldo-keto reductase family 1 member B1 (Homo sapiens, UniProt P15121)
# ASSAY_NOTES: Inhibition of AR (unknown origin) assessed as glycation activity
Examples of molecules with documented pIC50 follow.
Keep it numeric: pIC50 is minus log10 of the concentration in mol/L.

Specify measured pIC50 for `O=C1Nc2ccccc2/C1=C/c1cccc(Cl)c1` .
3.82

From here, focus on the item given below.
Specify measured pIC50 for C[C@@H]1O[C@@H](OC[C@H]2O[C@@H](Oc3c(-c4ccc(O)c(O)c4)oc4cc(O)cc(O)c4c3=O)[C@H](O)[C@@H](O)[C@@H]2O)[C@H](O)[C@H](O)[C@H]1O [RUTIN] .
3.53

----------
# Test system: SK-N-BE(2)
# ASSAY_NOTES: Anticancer activity against human SKNBE2 cells assessed as cell growth inhibition
# Format: functional, cell-based
PROPERTY_MEASURED: pIC50
Keep it numeric: pIC50 is minus log10 of the concentration in mol/L.

Find pIC50 for `COC(=O)C1=CO[C@@H](C)[C@H]2CN3CC[C@]4(C(=O)Nc5ccccc54)[C@@H]3C[C@H]12` on SK-N-BE(2) and write it down.
4.70

----------
# Test system: MDA-MB-435
# ASSAY_NOTES: Anticancer activity against human MDA-MB-435 cells assessed as cell growth inhibition by MTT assay
# Type: functional, cell-based
PROPERTY_MEASURED: IC50

Specify measured IC50 for `COc1cc[nH]c1/C=C1\C(=O)Nc2ccc([N+](=O)[O-])c(N3CC[C@@H](N)C3)c21` .
< 10 µM

----------
# TESTED_TARGET: High affinity nerve growth factor receptor (Homo sapiens, UniProt P04629)
# Sequence (P04629 whole entry): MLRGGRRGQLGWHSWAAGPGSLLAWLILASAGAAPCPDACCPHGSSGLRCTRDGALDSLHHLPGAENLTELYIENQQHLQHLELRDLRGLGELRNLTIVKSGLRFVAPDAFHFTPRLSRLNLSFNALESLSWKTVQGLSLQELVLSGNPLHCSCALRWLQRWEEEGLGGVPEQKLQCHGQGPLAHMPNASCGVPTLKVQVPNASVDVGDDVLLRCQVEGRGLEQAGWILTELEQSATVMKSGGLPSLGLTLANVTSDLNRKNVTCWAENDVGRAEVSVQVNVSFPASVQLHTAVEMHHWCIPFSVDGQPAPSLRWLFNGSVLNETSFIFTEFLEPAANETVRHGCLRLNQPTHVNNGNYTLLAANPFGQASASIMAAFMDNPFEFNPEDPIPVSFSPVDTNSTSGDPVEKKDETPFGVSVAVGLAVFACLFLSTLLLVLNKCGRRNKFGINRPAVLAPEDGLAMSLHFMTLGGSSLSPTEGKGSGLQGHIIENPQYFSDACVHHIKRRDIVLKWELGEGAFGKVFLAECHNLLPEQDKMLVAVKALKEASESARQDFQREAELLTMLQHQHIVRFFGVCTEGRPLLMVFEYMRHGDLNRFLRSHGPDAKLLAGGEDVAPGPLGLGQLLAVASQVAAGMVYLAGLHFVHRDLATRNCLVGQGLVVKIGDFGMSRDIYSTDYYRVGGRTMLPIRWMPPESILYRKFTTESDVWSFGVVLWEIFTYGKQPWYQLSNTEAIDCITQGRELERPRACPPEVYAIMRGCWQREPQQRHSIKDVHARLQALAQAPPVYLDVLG
PROPERTY_MEASURED: pIC50
Keep it numeric: pIC50 is minus log10 of the concentration in mol/L.

Specify measured pIC50 for `O=C1Nc2ccccc2/C1=C/Nc1ccc(-n2nccn2)cc1` .
8.10
